# credit: PubChem BioAssay (NCI)

System: COLO 205 colon
Assay name: NCI tumour cell line growth inhibition, 48 h
Measured quantity: TGI

Compound	Observed measurement
CCOC(=O)C1=C(C)N(C)C23OC4(C(=O)OC)CC2c2ccccc2C1N3C4=O (stereo unspecified)	> 100 µM
O=[N+]([O-])c1ccc(C=C2C(Cl)=C(Cl)C(Cl)=C2Cl)cc1	> 100 µM
CNC(=S)NC1CCCCC1NC(=S)NC (stereo unspecified)	> 100 µM
O=C1NC(=Nc2ccccc2)S/C1=C\c1ccc2ncccc2c1	> 25 µM
C=CC1CC12C(=O)C1OC2(C)C2C(=O)c3cc4ccccc4cc3C(=O)C12 (stereo unspecified)	> 100 µM
Cn1c(=O)c2c(nc(Nc3cc(=O)[nH]c(=O)[nH]3)n2Cc2ccccc2)n(C)c1=O	> 100 µM
